# reported EC50; entries follow
- Assay System: T1, human CD40 on cells (human, UniProt P25942 21-277)
- T1 construct: whole, on cells; The cell line used is named in each row's assay; also called hCD40; TNFRSF5
- T1 sequence (P25942 21-277): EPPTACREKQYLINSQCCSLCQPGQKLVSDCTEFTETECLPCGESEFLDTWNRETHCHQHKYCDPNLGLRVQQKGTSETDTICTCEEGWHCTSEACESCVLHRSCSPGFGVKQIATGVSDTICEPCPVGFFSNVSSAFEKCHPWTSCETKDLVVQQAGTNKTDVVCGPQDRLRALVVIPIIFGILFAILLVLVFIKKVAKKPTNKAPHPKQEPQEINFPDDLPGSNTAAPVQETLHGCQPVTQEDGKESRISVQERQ
- Assay Method Text: FACS, CHO-K1/hCD40 cells
Write the answer as a number in nM, unit excluded.

- PR006494 (antibody, human IgG1, kappa, V domains shown, PR003379 variant L:N92T; human IgG1 L234A, L235A, G237A) VH: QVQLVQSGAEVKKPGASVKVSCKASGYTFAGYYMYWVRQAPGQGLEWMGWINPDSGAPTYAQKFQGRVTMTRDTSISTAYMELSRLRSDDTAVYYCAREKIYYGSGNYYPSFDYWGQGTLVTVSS VL: DIQLTQSPSFLSASVGDRVTITCRASQGISSYLAWYQQKPGKAPKLLIYAASTLQSGVPSRFSGSGSGTEFTLTISSLQPEDFATYYCQQLTSYPWTFGQGTKVEIKR: 8.73
- PR006511 (antibody, human IgG1, kappa, V domains shown, PR003379 variant L:S93N; human IgG1 L234A, L235A, G237A) VH: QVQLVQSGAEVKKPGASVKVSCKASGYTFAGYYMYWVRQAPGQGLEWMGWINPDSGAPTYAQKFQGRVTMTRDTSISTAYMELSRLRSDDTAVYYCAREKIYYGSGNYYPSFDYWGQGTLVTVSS VL: DIQLTQSPSFLSASVGDRVTITCRASQGISSYLAWYQQKPGKAPKLLIYAASTLQSGVPSRFSGSGSGTEFTLTISSLQPEDFATYYCQQLNNYPWTFGQGTKVEIKR: 4.99

Please look at the following binder next.
For the binder PR006512 (antibody, human IgG1, kappa, V domains shown, PR003379 variant L:S93T; human IgG1 L234A, L235A, G237A) VH: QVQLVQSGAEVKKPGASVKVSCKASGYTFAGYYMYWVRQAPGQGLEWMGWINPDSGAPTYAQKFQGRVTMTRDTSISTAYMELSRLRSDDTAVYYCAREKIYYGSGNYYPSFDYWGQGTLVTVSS VL: DIQLTQSPSFLSASVGDRVTITCRASQGISSYLAWYQQKPGKAPKLLIYAASTLQSGVPSRFSGSGSGTEFTLTISSLQPEDFATYYCQQLNTYPWTFGQGTKVEIKR , give its measured EC50 value.
5.18
